test: AUC(0 to t) in Sprague-Dawley rat at 2 mg/kg, iv measured upto 24 hrs by LC-MS/MS analysis; type: ADME, organism-based; conditions: in vivo
metric: AUC(0-t) at 24 h (ng·h/mL)
Value expressed in ng·h/mL; do not type the unit.

In: So what's the measured AUC(0-t) at 24 h for this one? `NCC(=O)Nc1cc(Cl)cc(Cl)c1OCc1ccc(C(=O)Nc2ccccc2N)cc1`
Out: 1270

====

assay: Tmax in Sprague-Dawley rat at 10 mg/kg, po measured upto 24 hrs by LC-MS/MS analysis; type: ADME, organism-based; details: in vivo
Reported Tmax by item:
Value expressed in h; do not type the unit.

NCC(=O)Nc1cc(Cl)cc(Cl)c1OCc1ccc(C(=O)Nc2ccccc2N)cc1    0.83

In: So what's the measured Tmax for this one? `NCCCNC(=O)c1ccc(COc2c(N)cc(Cl)cc2Cl)cc1`
Out: 1.5

====

experiment: Drug concentration in Sprague-Dawley rat brain at 10 mg/kg, iv after 0.25 hrs by LC-MS/MS analysis; assay type: ADME, organism-based; settings: read-out: Ct
metric: concentration at 0.25 h (ng/g)
Value expressed in ng/g; do not type the unit.

In: So what's the measured concentration at 0.25 h for this one? `NCC(=O)Nc1cc(Cl)cc(Cl)c1OCc1ccc(C(=O)Nc2ccccc2N)cc1`
Out: 10.6

====

assay: Half life in Sprague-Dawley rat at 10 mg/kg, po measured upto 24 hrs by LC-MS/MS analysis; format: ADME, organism-based; conditions: in vivo
metric: half-life (h)
Value expressed in h; do not type the unit.

NCCCNC(=O)c1ccc(COc2c(N)cc(Cl)cc2Cl)cc1    1.96

In: So what's the measured half-life for this one? `NCC(=O)Nc1cc(Cl)cc(Cl)c1OCc1ccc(C(=O)Nc2ccccc2N)cc1`
Out: 4.26

====

experiment: Half life in Sprague-Dawley rat at 5 mg/kg, iv measured upto 24 hrs by LC-MS/MS analysis; assay type: ADME, organism-based; details: in vivo
metric: half-life (h)
Value expressed in h; do not type the unit.

In: So what's the measured half-life for this one? `NCCCNC(=O)c1ccc(COc2c(N)cc(Cl)cc2Cl)cc1`
Out: 2.67

====

experiment: Drug concentration in Sprague-Dawley rat plasma at 10 mg/kg, iv after 0.25 hrs by LC-MS/MS analysis; type: ADME, organism-based
metric: concentration at 0.25 h (ng/mL)
Value expressed in ng/mL; do not type the unit.

In: So what's the measured concentration at 0.25 h for this one? `NCC(=O)Nc1cc(Cl)cc(Cl)c1OCc1ccc(C(=O)Nc2ccccc2N)cc1`
Out: 1890

====

assay: Drug concentration in Sprague-Dawley rat plasma at 10 mg/kg, iv after 1 hr by LC-MS/MS analysis; format: ADME, organism-based
metric: concentration at 1 h (ng/mL)
Value expressed in ng/mL; do not type the unit.

In: So what's the measured concentration at 1 h for this one? `NCC(=O)Nc1cc(Cl)cc(Cl)c1OCc1ccc(C(=O)Nc2ccccc2N)cc1`
Out: 329

====

test: AUC(0 to t) in Sprague-Dawley rat at 5 mg/kg, iv measured upto 24 hrs by LC-MS/MS analysis; assay type: ADME, organism-based; settings: in vivo
metric: AUC(0-t) at 24 h
The reply must contain the numeric value and, after it, the unit.

In: So what's the measured AUC(0-t) at 24 h for this one? `NCCCNC(=O)c1ccc(COc2c(N)cc(Cl)cc2Cl)cc1`
Out: 296 ng·h/mL
